Recorded values, source ChEMBL document CHEMBL1821624.

Overview of reported IC50 across a group of compounds:
- System: Leishmania amazonensis
- METHOD NOTES: Antileishmanial activity against Leishmania amazonensis IFLA/BR/67/PH8 promastigotes […] assessed as inhibition of parasite growth after 72 hrs by MTT assay
- Type: functional, organism-based
- ASSAY CONDITIONS: IFLA/BR/67/PH8, 72 h
MEASURED QUANTITY: IC50

- C=C(C(=O)OCCC)C(O)c1ccc([N+](=O)[O-])cc1 (racemic): 52 µM
- C=C(C(=O)OCCC)C(O)c1cccnc1 (racemic): 211 µM
- C=C(C(=O)OCCO)C(O)c1cccnc1 (racemic): 324 µM
- C=C(C(=O)OCCC)C(O)c1ccccn1 (racemic): 194 µM
- C=C(C(=O)OCCC)C(O)c1cccc([N+](=O)[O-])c1 (racemic): 72.2 µM

---

- Test system: Leishmania amazonensis
- METHOD NOTES: Antileishmanial activity against Leishmania amazonensis IFLA/BR/67/PH8 promastigotes […] assessed as inhibition of parasite growth after 72 hrs by MTT assay
- Assay type: functional, organism-based
- ASSAY CONDITIONS: IFLA/BR/67/PH8, 72 h
// values below are reported log10 IC50
MEASURED QUANTITY: log10 IC50 (log10 of the value in µM)

- C=C(C(=O)OCCC)C(O)c1ccc2ccccc2c1 (racemic): 1.74
- C=C(C(=O)OCCO)C(O)c1ccc([N+](=O)[O-])cc1 (racemic): 1.72
- C=C(C(=O)OCCO)C(O)c1cccc([N+](=O)[O-])c1 (racemic): 1.81
- C=C(C(=O)OCCC)C(O)c1ccc(Br)cc1 (racemic): 1.87
- C=C(C(=O)OCCO)C(O)c1ccncc1 (racemic): 2.58
- C=C(C(=O)OCCC)C(O)c1ccncc1 (racemic): 2.17
- C=C(C(=O)OCCO)C(O)c1ccc2ccccc2c1 (racemic): 1.72
- C=C(C(=O)OCCO)C(O)c1ccccc1[N+](=O)[O-] (racemic): 1.31
- C=C(C(=O)OCCO)C(O)c1ccc(Br)cc1 (racemic): 1.75
- C=C(C(=O)OCCO)C(O)c1ccccn1 (racemic): 2.42
- C=C(C(=O)OCCC)C(O)c1ccccc1[N+](=O)[O-] (racemic): 1.45

---

- METHOD NOTES: Cytotoxicity against Swiss mouse peritoneal macrophages after 24 hrs by MTT assay
- Format: cell-based, Peritoneal macrophage cell
The following compounds are shown together with reported CC50 at 24 h values.
MEASURED QUANTITY: CC50 at 24 h (µM)

* C=C(C(=O)OCCO)C(O)c1ccc(Br)cc1 (racemic) | 157
* C=C(C(=O)OCCC)C(O)c1cccnc1 (racemic) | 384
* C=C(C(=O)OCCO)C(O)c1ccncc1 (racemic) | 458
* C=C(C(=O)OCCC)C(O)c1cccc([N+](=O)[O-])c1 (racemic) | 114
* C=C(C(=O)OCCC)C(O)c1ccc2ccccc2c1 (racemic) | 149
* C=C(C(=O)OCCC)C(O)c1ccc([N+](=O)[O-])cc1 (racemic) | 122
